Test: in vitro
Details: chlorocebus aethiops, Yellow fever CC50
// CC50 at 168 h lookup, one value per entry
Could you give me the number in µM? Just the number is fine.

Recorded results for 5 compounds are shown here.
Answer with the recorded CC50 at 168 h of Cc1cc(-c2ccccc2NC(=O)c2nccnc2C(=O)Nc2ccc(F)cc2)[nH]n1 only. 77

Answer with the recorded CC50 at 168 h of Cc1ccc(NC(=O)c2ccccc2C(=O)Nc2ccc(F)cc2)c(-c2ccsc2)c1 only. 67

Answer with the recorded CC50 at 168 h of Cc1ccc(NC(=O)c2nccnc2C(=O)NCc2ccccc2-c2ccsc2)cc1 only. 75

Answer with the recorded CC50 at 168 h of Cc1ccc(NC(=O)c2ccccc2C(=O)NCc2ccccc2-c2ccsc2)cc1 only. 61

Answer with the recorded CC50 at 168 h of Cc1ccc(NC(=O)c2ccccc2C(=O)Nc2ccc(C)cc2-c2ccc(C)s2)cc1 only. 23

Now take the following compound into account.
Answer with the recorded CC50 at 168 h of O=C(NCc1ccccc1-c1ccsc1)c1nccnc1C(=O)Nc1ccc(F)cc1 only. 76
